Test system: normal fibroblasts
assay_summary: MTT cell viability assay, normal fibroblasts
Assay type: cell-based, human
test_context: 24 h, MTT, compounds 6.25–200 µM; read-out: IC50 of viability, Fibroblasts
pIC50: −log10 of the molar value.
readout_kind: pIC50

Query N.N.[Cl][Pt][Cl] [cPT, cisplatin, reference compound] on normal fibroblasts; pIC50 returned: < 3.70

---

Assignment: determine reported IC50 for the given compounds.
Tested on: human tongue squamous carcinoma cells SCC-25
assay_summary: MTT cell viability assay, SCC-25 cells
Assay type: cell-based
test_context: Homo sapiens, SCC-25; 24 h, MTT, compounds 6.25–200 µM; read-out: IC50 of viability, SCC-25

>  <compound>
COc1cccc(O)c1-c1cc(=O)c2c(O)cccc2o1

>  <test_value>
> 200 µM

$$$$

Let us move to another entry and its IC50.
Entry O=c1cc(-c2ccccc2)oc2cccc(O)c12 [Compound 2, 5-hydroxy-2-phenyl-4H-chromen-4-one] , IC50 reported as > 200 µM

---

Provide the reported IC50 of each item.
Tested on: DNA biosynthesis in SCC-25 cells
assay_summary: [3H]-thymidine incorporation (DNA biosynthesis / proliferation) assay
Format: cell-based
test_context: Homo sapiens; 48 h treatment of SCC-25 cells (as stated in abstract); read-out: DNA biosynthesis-inhibitory activity IC50
For clarity, give the value followed by its unit.

>  <structure_notation>
COc1ccc(O)c(-c2cc(=O)c3c(O)cccc3o2)c1OC

>  <IC50>
40.6 µM

$$$$

Lab note: next compound to report on.
In plain terms, O=C(CC(=O)c1ccccc1)c1ccccc1 has a documented IC50 of 29.1 µM
